Molecular target: T1, human serum albumin (human, UniProt P02768 25-609)
T1 construct: also called HSA; plasma protein (PPB)
T1 sequence (P02768 25-609 limits assumed): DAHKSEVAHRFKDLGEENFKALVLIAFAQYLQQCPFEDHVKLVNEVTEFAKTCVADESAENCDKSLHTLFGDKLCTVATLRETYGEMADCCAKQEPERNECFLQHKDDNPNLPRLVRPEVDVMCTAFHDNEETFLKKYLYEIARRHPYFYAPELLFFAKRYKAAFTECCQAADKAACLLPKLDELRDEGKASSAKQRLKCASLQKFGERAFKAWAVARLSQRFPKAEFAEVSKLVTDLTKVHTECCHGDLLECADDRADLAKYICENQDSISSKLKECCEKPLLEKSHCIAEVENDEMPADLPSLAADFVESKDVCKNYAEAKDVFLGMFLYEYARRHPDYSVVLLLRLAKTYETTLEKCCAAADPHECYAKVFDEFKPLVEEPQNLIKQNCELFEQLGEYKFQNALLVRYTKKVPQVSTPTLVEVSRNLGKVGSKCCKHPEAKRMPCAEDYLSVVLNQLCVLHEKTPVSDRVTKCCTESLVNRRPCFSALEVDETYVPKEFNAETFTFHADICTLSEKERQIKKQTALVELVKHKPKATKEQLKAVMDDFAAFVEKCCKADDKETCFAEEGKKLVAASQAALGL
Test: fluorescence polarisation, change of polarisation value with human serum albumin
Bridges are numbered along the chain shown (N, C = ends).

- binder: "Ac-AGSCYCSGPPRFECWCYETEGTGGGK-NH2 (disulfide 6-14, 4-16; not fully specified (residue 26); also: DY-633 dye attached, site not given here) [Compound 3 ([Peptide 1]-DY-633 conjugate)]"
  PPB (% change in polarisation value) [%]: 27
